B1: library; numbered along this chain (parent)
chain: MRKPRAAVGSGHRKQAASQEGRQKHAKNNSQAKPSACDGLARQPEEVVLQASVSSYHLFRDVAEVTAFRGSLLSWYDQEKRDLPWRRRAEDEMDLDRRAYAVWVSEVMLQQTQVATVINYYTGWMQKWPTLQDLASASLEEVNQLWAGLGYYSRGRRLQEGARKVVEELGGHMPRTAETLQQLLPGVGRYTAGAIASIAFGQATGVVDGNVARVLCRVRAIGADPSSTLVSQQLWGLAQQLVDPARPGDFNQAAMELGATVCTPQRPLCSQCPVESLCRARQRVEQEQLLASGSLSGSPDVEECAPNTGQCHLCLPPSEPWDQTLGVVNFPRKASRKPPREESSATCVLEQPGALGAQILLVQRPNSGLLAGLWEFPSVTWEPSEQLQRKALLQELQRWAGPLPATHLRHLGEVVHTFSHIKLTYQVYGLALEGQTPVTTVPPGARWLTQEEFHTAAVSTAMKKVFRVYQGQQPGTCMGSKRSQVSSPCSRKKPRMGQQVLDNFFRSHISTDAHSLNSAAQ

# Variants of: B1
# Experiment summary: 8OG:A repair function score (normalized; synonymous = 0, nonsense = -1) (normalized log-likelihood score); higher = more repair activity (WT-like);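 further: cells sorted at 72 h after reporter transfection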
# Condition details: with 8OG:A DNA repair reporter (GFP) in HEK-293 MUTYH KO cells
// reported 8OG:A repair function score for each item listed
Experimental endpoint: 8OG:A repair function score

Variant key	Experimental endpoint	Result
H172V	8OG:A repair function score	0.0577
P316T	8OG:A repair function score	-0.057
A405Q	8OG:A repair function score	-0.0438
A101W	8OG:A repair function score	-0.762
P474G	8OG:A repair function score	-0.00334
A519G	8OG:A repair function score	-0.00167
E160L	8OG:A repair function score	-0.0898
E92M	8OG:A repair function score	-0.0276
V328S	8OG:A repair function score	-0.00939
L315W	8OG:A repair function score	-0.187
E275C	8OG:A repair function score	-0.0803
R340N	8OG:A repair function score	-0.24
V284L	8OG:A repair function score	-0.0493
C304W	8OG:A repair function score	-0.296
C347P	8OG:A repair function score	-1.08
